Each recorded value in this set is attributed to the supplement of paper PMC9732359.

Overview of reported protein stability index across a group of sequences:
measurement description: protein stability index of a GFP-peptide fusion (yeast GPS) (PSI 1-4); higher = more stable; sorted into four equal gates, so the index is relative within each strain
experimental context: ubr1∆
measured property: protein stability index

item sequence: IFKIVQSRLMSTSYHLN [MED6]
recorded number: 2.31

item sequence: MAFEASAAAAGNRNSSS [BRR2]
recorded number: 3.14

item sequence: TARRNVSGDAAALFRLH [SWI3]
recorded number: 1.95

item sequence: ATSDNKTTNTTPSFSFG [YJL041W/NSP1]
recorded number: 3.1

item sequence: IEKMSTIVQLCKKKEMS [YIL149C/MLP2]
recorded number: 1.76

item sequence: LYNDNNKNNNNRHNLLN [SWI1]
recorded number: 2.4

item sequence: AVKLGDLKKFTSTITKY [RPN3]
recorded number: 2.56

item sequence: PSNFEINAEEIVDFTLP [PRP8]
recorded number: 3.02

item sequence: LDELQWKSPEWIQVFGL [MED6]
recorded number: 2.56

item sequence: KRKCGHTNQLRPKKKLK [RPL40A]
recorded number: 2.99

item sequence: HLILDKLNQKYDIVKFL [GRR1]
recorded number: 1.81

item sequence: SVVLTLQAFGESESTTN [RPB3]
recorded number: 1.18

item sequence: EHRRYDDQLKQRRQNIR [RPT4]
recorded number: 2.69

item sequence: KGGKGLGKGGAKRHRKI [HHF1]
recorded number: 3.59

item sequence: GIVLEKLGIESKQPNSA [RPS23A]
recorded number: 2.38

item sequence: ASSNFPFLNETKPGVYY [RPC82]
recorded number: 2.99

item sequence: IVQELLDKNLIKLVKQN [RPC34]
recorded number: 2.57

item sequence: DTAGEESQQQDESLKDE [SWI3]
recorded number: 3.61

item sequence: PQTMEHYKQQIAVLIEL [YCS4]
recorded number: 2.52

item sequence: EKKNDENSTSNSKPEKS [YLR335W/NUP2]
recorded number: 3.3

item sequence: ESDGRMFIEEPTRMVRV [SRP54]
recorded number: 2.73

item sequence: NKAQAKMDKRAKNSDSA [RPL8A]
recorded number: 3.54

item sequence: DRRAQRVAEKRDALLKE [RPL19A]
recorded number: 3.44

item sequence: ELRRFESSINTHPHAAD [SKI6]
recorded number: 2.87

item sequence: GLNSDAEEVRNFALTTL [ECM29]
recorded number: 1.62

item sequence: KDEPVQNDILQESFINT [FAS2]
recorded number: 3.21

item sequence: NEKVAVMRNTYNTRKNA [GAL11]
recorded number: 2.37

item sequence: TTSEKQEVTNEAPFLTS [GAL11]
recorded number: 3.36

item sequence: EGLELLGWIHTQTEELK [PRP8]
recorded number: 3.29

item sequence: QPIEKNGDKMPLKFKLG [YJR042W/NUP85]
recorded number: 3.08
